Overview of reported %Inh across a group of compounds:
tested on: MST2; construct: gene STK3; details: concentration: 1 μM, replicates: in singlicate; n = 1;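 further: KINOMEscan kinase panel screen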

Compound | %Inh / %
CSc1ccc(-c2nc3n(c2-c2ccncc2)CCC3)cc1 [SKF-105561] | 9
CC[C@@H]1CO[C@H](C(=O)Nc2ccccc2)CN1c1cc(-c2ccc3c(N)n[nH]c3c2)nc(NC)n1 [GSK2376236] | 10
CNc1cc(-c2ccc3c(N)n[nH]c3c2)nc(N)n1 [GSK2224810] | 0
O=C(Nc1n[nH]c2nc(-c3cccs3)c(Br)cc12)C1CC1 [SB-735297] | 4
CNc1nc(-c2ccc3c(N)n[nH]c3c2)cc(N2C[C@@H](C(=O)NC3CCCCC3)OC[C@H]2C)n1 [GSK2375584] | 0
COc1ccc(-c2coc3ccc(-c4nnc(C)o4)cc23)cc1 | 0
Cc1ccccc1-c1cc(-c2c[nH]nc2-c2ccccn2)ccn1 [GW680061] | 0

Numbers sourced from paper PMC5540273.
